# Test system: E. coli (APH(3′)IIIa)
# TEST PROTOCOL: MIC 50, broth micro-dilution, E. coli expressing APH(3′)IIIa
# Assay type: cell-based, Escherichia coli
# TEST SETTINGS: Escherichia coli, ATCC25922, ATCC25922 harboring plasmid encoding APH(3′)IIIa
# Method: Plasmid transformation. […] Inoculum preparation. […] The Inoculums were grown to an optical density (measured by UV/Vis spectroscopy) of 0.6-0.8 at 600 nm. […] MIC determination. […] The optical density was determined by a plate reader at 600 nm, with 10 s shaking before reading. […]
RESULT TYPE: MIC50 (µM)
Write the value in µM as a bare number.

MOLECULE: N=C(NC[C@H]1CNCCO1)NC1[C@@H](O)C(OC2[C@@H](F)[C@H](O[C@H]3OC(CN)[C@@H](O)CC3N)C(N)C[C@H]2NC(=O)[C@@H](O)CCN)O[C@H](CO)[C@H]1O (stereo partly drawn)
READOUT UNIT: µM
MIC50: 0.25

Ask: MIC50 for N=C(N)NC1[C@@H](O)C(OC2[C@@H](F)[C@H](O[C@H]3OC(CN)[C@@H](O)[C@H](O)C3O)C(N)C[C@H]2NC(=O)[C@@H](O)CCN)O[C@H](CO)[C@H]1O (stereo partly drawn) [ABX3003, 3′epi-KanaA-AHB-F-Gua] ?
Reply: 2

Ask: MIC50 for CNCCNC(=N)NC1[C@@H](O)C(OC2[C@@H](F)[C@H](O[C@H]3OC(CN)[C@@H](O)CC3N)C(N)C[C@H]2NC(=O)[C@@H](O)CCN)O[C@H](CO)[C@H]1O (stereo partly drawn) ?
Reply: 0.25

Ask: MIC50 for N=C(NCC1CCCO1)NC1[C@@H](O)C(OC2[C@@H](F)[C@H](O[C@H]3OC(CN)[C@@H](O)CC3N)C(N)C[C@H]2NC(=O)[C@@H](O)CCN)O[C@H](CO)[C@H]1O (stereo partly drawn) ?
Reply: 0.5

Ask: MIC50 for N=C(NCCCN)NC1[C@@H](O)C(OC2[C@@H](F)[C@H](O[C@H]3OC(CN)[C@@H](O)CC3N)C(N)C[C@H]2NC(=O)[C@@H](O)CCN)O[C@H](CO)[C@H]1O (stereo partly drawn) ?
Reply: 0.25

Ask: MIC50 for N=C(NC[C@H]1CCCNC1)NC1[C@@H](O)C(OC2[C@@H](F)[C@H](O[C@H]3OC(CN)[C@@H](O)CC3N)C(N)C[C@H]2NC(=O)[C@@H](O)CCN)O[C@H](CO)[C@H]1O (stereo partly drawn) ?
Reply: 0.5

Ask: MIC50 for N=C(NC[C@@H]1CNCCO1)NC1[C@@H](O)C(OC2[C@@H](F)[C@H](O[C@H]3OC(CN)[C@@H](O)CC3N)C(N)C[C@H]2NC(=O)[C@@H](O)CCN)O[C@H](CO)[C@H]1O (stereo partly drawn) ?
Reply: 0.25

Ask: MIC50 for N=C(N)NC1[C@@H](O)C(OC2[C@@H](F)[C@H](O[C@H]3OC(CNCCO)[C@@H](O)CC3N)C(N)C[C@H]2NC(=O)[C@@H](O)CCN)O[C@H](CO)[C@H]1O (stereo partly drawn) [ABX5045, 6N-2-hydroxy-ethyl-Tobra-AHB-F-Gua] ?
Reply: 1

Ask: MIC50 for N=C(NCc1ccncc1)NC1[C@@H](O)C(OC2[C@@H](F)[C@H](O[C@H]3OC(CN)[C@@H](O)CC3N)C(N)C[C@H]2NC(=O)[C@@H](O)CCN)O[C@H](CO)[C@H]1O (stereo partly drawn) ?
Reply: 0.25

Ask: MIC50 for N=C(NCC1CCOC1)NC1[C@@H](O)C(OC2[C@@H](F)[C@H](O[C@H]3OC(CN)[C@@H](O)CC3N)C(N)C[C@H]2NC(=O)[C@@H](O)CCN)O[C@H](CO)[C@H]1O (stereo partly drawn) ?
Reply: 0.5

Ask: MIC50 for C[C@@H](N)CCNC(=N)NC1[C@@H](O)C(OC2[C@@H](F)[C@H](O[C@H]3OC(CN)[C@@H](O)CC3N)C(N)C[C@H]2NC(=O)[C@@H](O)CCN)O[C@H](CO)[C@H]1O (stereo partly drawn) [ABX5047, Tobra-AHB-F-Gua (R) 3-amino-butyl] ?
Reply: 0.25

Ask: MIC50 for N=C(NCCO)NC1[C@@H](O)C(OC2[C@@H](F)[C@H](O[C@H]3OC(CN)[C@@H](O)CC3N)C(N)C[C@H]2NC(=O)[C@@H](O)CCN)O[C@H](CO)[C@H]1O (stereo partly drawn) [ABX5029, Tobra-AHB-F-Gua 2-hydroxy-ethyl] ?
Reply: 0.5

Ask: MIC50 for N=C(NC[C@H]1CCNC1)NC1[C@@H](O)C(OC2[C@@H](F)[C@H](O[C@H]3OC(CN)[C@@H](O)CC3N)C(N)C[C@H]2NC(=O)[C@@H](O)CCN)O[C@H](CO)[C@H]1O (stereo partly drawn) ?
Reply: 0.25
